Known melting point of a selection of compounds

structureassmiles=CCc1c(C)nc2sc(S(C)(=O)=O)c(C#N)c2c1C experimentalendpoint="melting point" recordedmeasurement="219 to 220 °C"

In one line, give reported melting point of the entry `Cc1nc2sc(-c3nnc(-c4ccc(F)cc4)o3)c(N)c2c(C)c1C` .
320 to 322 °C

In one line, give reported melting point of the entry `CCc1c(C)nc2sc(-c3nnc(-c4ccccc4)o3)c(N)c2c1C` .
306 to 307 °C

In one line, give reported melting point of the entry `CCc1c(C)nc2sc(C(=O)OC(C)(C)C)c(N)c2c1C` .
135 to 136 °C

In one line, give reported melting point of the entry `CC(C)(C)NC(=O)c1sc2nc3c(c(-c4cccs4)c2c1N)CCCCC3` .
184 to 185 °C

In one line, give reported melting point of the entry `CCc1c(C)nc2sc(C(=O)SC(C)(C)C)cc2c1C` .
109.6 to 110.2 °C

In one line, give reported melting point of the entry `Cc1nc2sc(-c3nnc(-c4ccccc4Cl)o3)c(N)c2c(C)c1C` .
284 to 286 °C

In one line, give reported melting point of the entry `CCc1c(C)nc2sc(NC(=O)C(C)(C)C)c(C#N)c2c1C` .
164 to 166 °C

----------
# System: HCV replicon
# assayMethodText: microbe, parasite or virus in culture
# Format: cell-based
# conditionSummary: Hepatitis C virus, 48 h, read-out: Replicon IC50s μM
experimentalEndpoint: IC50

Reference set, count: 8
molecule=COCCN1CCN(CCOc2c(C)nc3sc(C(=O)OC(C)(C)C)c(N)c3c2C)CC1 testedsystem="HCV replicon" recordedmeasurement="> 2 µM"
molecule=CCc1c(C)nc2sc(C(=O)SC(C)(C)C)c(N)c2c1C testedsystem="HCV replicon" recordedmeasurement="> 2 µM"
molecule=Cc1ccccc1-c1nnc(-c2sc3nc(C)c(C)c(C)c3c2N)o1 testedsystem="HCV replicon" recordedmeasurement="< 0.5 µM"
molecule=CCc1c(C)nc2sc(C(=O)OC(C)(C)C)c(-c3ccc(OC)cc3)c2c1C testedsystem="HCV replicon" recordedmeasurement="> 2 µM"
molecule=Nc1c(C(=O)Nc2ccc(C(F)(F)F)cc2)sc2nc3c(cc12)CCCCC3 testedsystem="HCV replicon" recordedmeasurement="> 2 µM"
molecule="Cc1cc(CO)c2c3c(sc2n1)C(=O)NC(c1ccccc1)N3 (stereo not drawn)" testedsystem="HCV replicon" recordedmeasurement="> 2 µM"
molecule=Cc1nc2sc(-c3nc(-c4ccccc4)no3)c(N)c2c(C)c1C testedsystem="HCV replicon" recordedmeasurement="< 0.5 µM"
molecule=Nc1c(C(=O)Nc2ccc(Br)cc2)sc2nc3c(c(-c4ccco4)c12)CCCCC3 testedsystem="HCV replicon" recordedmeasurement="> 2 µM"

In one line, give reported IC50 of the entry `Cc1nc2sc(-c3nnc(-c4ccc(Cl)cc4)o3)c(N)c2c(C)c1C` .
> 2 µM

In one line, give reported IC50 of the entry `N#Cc1c(C(=O)Nc2ccccc2)sc2nc3c(c(-c4cccs4)c12)CCCCC3` .
> 2 µM

In one line, give reported IC50 of the entry `Cc1nc2sc(C(=O)OC(C)(C)C)c(N)c2c(C)c1OCCN1CCCN(C)CC1` .
0.5 to 2 µM

In one line, give reported IC50 of the entry `Cc1nc2sc(-c3nnc(-c4cccc(Cl)c4)o3)c(N)c2c(C)c1C` .
> 2 µM

In one line, give reported IC50 of the entry `Cc1nc2sc(-c3noc(-c4ccccc4)n3)c(N)c2c(C)c1C` .
< 0.5 µM

In one line, give reported IC50 of the entry `CCc1c(C)nc2sc(C(=O)OC(C)(C)C)c(-c3ccc(Cl)cc3)c2c1C` .
> 2 µM

In one line, give reported IC50 of the entry `CCN1CCN(CCOc2c(C)nc3sc(C(=O)OC(C)(C)C)c(N)c3c2C)CC1` .
> 2 µM
